# SYSTEM_NAME: Lysine-specific histone demethylase 1A (Homo sapiens)
# PROCEDURE_TEXT: Inhibition of LSD1 (unknown origin)
# MEASUREMENT_PARAMETERS: read-out: IC50
pIC50: −log10 of the molar value.
MEASURED_METRIC: pIC50

C#CCSc1nc(Nc2ccc(F)cc2)c(C#N)c(-c2ccccc2)n1 :: 3.90
C#CCSc1nc(Nc2ccc([N+](=O)[O-])cc2)c(C#N)c(-c2ccccc2)n1 :: 3.90
C#CCSc1nc(Nc2ccc(Cl)cc2)c(C#N)c(-c2ccccc2)n1 :: 3.90
C#CCSc1nc(Cl)c(C#N)c(-c2ccc([N+](=O)[O-])cc2)n1 :: 3.90
N#Cc1c(Cl)nc(SCc2cn(Cc3ccccc3Cl)nn2)nc1-c1ccc(Cl)cc1 :: 3.90
COc1cc(-c2nc(SCc3ccc(F)cc3)nc(NNC(N)=S)c2C#N)cc(OC)c1OC :: 3.90

Data credit: ChEMBL document CHEMBL4033745
